Where do these numbers come from? They come from the NIST ThermoML archive (doi:10.1021/je200790q).

Assignment: determine reported viscosity for the given compounds.
Conditions: 353.15 K; 101.33 kPa; Liquid
Give bare numbers, in mPa·s.

Known viscosity results, listed for orientation:
# COMPOUND, viscosity [mPa·s]
rows = [
    ("CCn1cc[n+](C)c1.Cc1ccc(S(=O)(=O)[O-])cc1 [1-ethyl-3-methylimidazolium 4-methylbenzenesulfonate]", 48.42),
    ("CCn1cc[n+](C)c1.O=S(=O)([O-])C(F)(F)F [1-ethyl-3-methylimidazolium trifluoromethanesulfonate]", 9.845),
    ("CCn1cc[n+](C)c1.CS(=O)(=O)[O-] [1-ethyl-3-methylimidazolium methanesulfonate]", 17.19),
]

Let's switch to this compound now.
Data request: Dear colleague, I am looking for the recorded viscosity of the following compound: CCn1cc[n+](C)c1.N#CN=C=[N-] [1-ethyl-3-methylimidazolium dicyanamide]
Data returned: 4.909

###

Assay: molar heat capacity at constant pressure
Conditions: 298.15 K; 101.33 kPa; Liquid; Drop calorimetry
QUANTITY NAME: molar heat capacity at constant pressure (J/K/mol)
One number for each entry, in J/K/mol.

// for each compound below, give its molar heat capacity at constant pressure
1. CCn1cc[n+](C)c1.N#C[S-] [1-ethyl-3-methylimidazolium thiocyanate]
2. CCn1cc[n+](C)c1.COP(=O)([O-])OC [1-ethyl-3-methylimidazolium dimethylphosphate]
3. CCn1cc[n+](C)c1.CS(=O)(=O)[O-] [1-ethyl-3-methylimidazolium methanesulfonate]
4. CCn1cc[n+](C)c1.O=S(=O)([O-])C(F)(F)F [1-ethyl-3-methylimidazolium trifluoromethanesulfonate]

Data returned:
[281.45, 411.78, 345.52, 362.8]

// for each compound below, give its molar heat capacity at constant pressure
1. CCn1cc[n+](C)c1.N#CN=C=[N-] [1-ethyl-3-methylimidazolium dicyanamide]
2. CCn1cc[n+](C)c1.CO[PH](=O)[O-] [1-ethyl-3-methylimidazolium methyl phosphonate]
3. CC(=O)[O-].CCn1cc[n+](C)c1 [1-ethyl-3-methylimidazolium acetate]

Data returned:
314.63
354.63
321.9

###

Conditions: 338.15 K; 101.33 kPa; Liquid; Vibrating tube method
QUANTITY NAME: mass density (kg/m3)
Numbers only, in kg/m3.

# COMPOUND, mass density / kg/m3
records = [
    ("CCn1cc[n+](C)c1.Cc1ccc(S(=O)(=O)[O-])cc1 [1-ethyl-3-methylimidazolium 4-methylbenzenesulfonate]", 1200.6),
    ("CCn1cc[n+](C)c1.CO[PH](=O)[O-] [1-ethyl-3-methylimidazolium methyl phosphonate]", 1183),
    ("CCn1cc[n+](C)c1.O=S(=O)([O-])C(F)(F)F [1-ethyl-3-methylimidazolium trifluoromethanesulfonate]", 1352.5),
    ("CCn1cc[n+](C)c1.N#CN=C=[N-] [1-ethyl-3-methylimidazolium dicyanamide]", 1077.8),
    ("CCn1cc[n+](C)c1.N#C[S-] [1-ethyl-3-methylimidazolium thiocyanate]", 1093),
    ("CC(=O)[O-].CCn1cc[n+](C)c1 [1-ethyl-3-methylimidazolium acetate]", 1075),
]

// for each compound below, give its mass density
1. CCn1cc[n+](C)c1.COP(=O)([O-])OC [1-ethyl-3-methylimidazolium dimethylphosphate]
2. CCn1cc[n+](C)c1.CS(=O)(=O)[O-] [1-ethyl-3-methylimidazolium methanesulfonate]

Data returned:
[1190.6, 1215.6]

###

Details: 303.15 K; 101.33 kPa; Liquid; Vibrating tube method
QUANTITY NAME: mass density (kg/m3)
Give bare numbers, in kg/m3.

Known mass density results, listed for orientation:
# COMPOUND, mass density, kg/m3
data = [
    ("CCn1cc[n+](C)c1.Cc1ccc(S(=O)(=O)[O-])cc1 [1-ethyl-3-methylimidazolium 4-methylbenzenesulfonate]", 1223.4),
    ("CC(=O)[O-].CCn1cc[n+](C)c1 [1-ethyl-3-methylimidazolium acetate]", 1096.2),
    ("CCn1cc[n+](C)c1.CO[PH](=O)[O-] [1-ethyl-3-methylimidazolium methyl phosphonate]", 1205),
    ("CCn1cc[n+](C)c1.N#C[S-] [1-ethyl-3-methylimidazolium thiocyanate]", 1113.9),
    ("CCn1cc[n+](C)c1.N#CN=C=[N-] [1-ethyl-3-methylimidazolium dicyanamide]", 1100.6),
    ("CCn1cc[n+](C)c1.O=S(=O)([O-])C(F)(F)F [1-ethyl-3-methylimidazolium trifluoromethanesulfonate]", 1381.6),
    ("CCn1cc[n+](C)c1.COP(=O)([O-])OC [1-ethyl-3-methylimidazolium dimethylphosphate]", 1213.9),
]

Data request: Dear colleague, I am looking for the recorded mass density of the following compound: CCn1cc[n+](C)c1.CS(=O)(=O)[O-] [1-ethyl-3-methylimidazolium methanesulfonate]
Data returned: 1239
